# studySystem: mTLR9 (Mus musculus)
# Construct: Splenocytes isolated from male C57/BL6 mice; from tissue; host or cells: splenocytes from the spleen of male C57BL/6 mice
# Sequence (Q9EQU3 26-1032): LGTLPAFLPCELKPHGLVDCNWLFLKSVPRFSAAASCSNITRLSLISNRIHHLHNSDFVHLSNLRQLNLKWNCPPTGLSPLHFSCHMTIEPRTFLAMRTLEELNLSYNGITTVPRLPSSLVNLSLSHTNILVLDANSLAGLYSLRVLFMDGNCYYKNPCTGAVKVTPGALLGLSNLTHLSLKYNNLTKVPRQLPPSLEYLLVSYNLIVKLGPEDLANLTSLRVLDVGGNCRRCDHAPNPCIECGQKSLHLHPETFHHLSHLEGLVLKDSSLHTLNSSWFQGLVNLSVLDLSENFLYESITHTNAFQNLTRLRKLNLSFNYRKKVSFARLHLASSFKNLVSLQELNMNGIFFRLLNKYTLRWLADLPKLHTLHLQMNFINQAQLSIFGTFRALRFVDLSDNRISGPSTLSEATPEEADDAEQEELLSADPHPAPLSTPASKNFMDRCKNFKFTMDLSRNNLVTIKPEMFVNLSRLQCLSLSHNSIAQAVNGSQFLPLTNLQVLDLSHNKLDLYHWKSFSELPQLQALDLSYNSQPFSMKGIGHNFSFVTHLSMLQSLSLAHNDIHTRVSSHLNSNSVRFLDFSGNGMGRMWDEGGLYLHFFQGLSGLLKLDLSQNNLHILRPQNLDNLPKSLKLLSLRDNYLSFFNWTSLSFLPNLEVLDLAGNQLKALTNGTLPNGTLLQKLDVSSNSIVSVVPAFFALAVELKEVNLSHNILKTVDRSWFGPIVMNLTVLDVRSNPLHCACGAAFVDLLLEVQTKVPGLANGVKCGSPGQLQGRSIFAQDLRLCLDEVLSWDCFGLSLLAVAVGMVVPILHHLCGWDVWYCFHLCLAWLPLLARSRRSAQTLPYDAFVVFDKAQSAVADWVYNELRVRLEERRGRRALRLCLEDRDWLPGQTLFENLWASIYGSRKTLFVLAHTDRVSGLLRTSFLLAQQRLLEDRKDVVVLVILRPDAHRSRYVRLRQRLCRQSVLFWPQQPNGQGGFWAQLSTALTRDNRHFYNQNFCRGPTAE
# methodNotes: mTLR9 antagonism (IL-6 and TNF-α release assay) in mouse splenocytes, CpG ODN-2006 stimulated
# Assay type: cell-based
# conditionParameters: 1 μM; TNF-α release, mouse splenocytes; read-out: mTLR9 inhibitory activity (% at 1 μM), TNF-α
measurementKind: inhibition at 1 µM
Remember to quote the unit after the number.

> print(dat)
                                   molecule  datavalue
1  CCN1CCN(c2ccc(-c3nc(C)c(C)c4[nH]c(CN5CCOCC5)cc34)cc2)CC1       100%
2  CC(C)N1CCN(Cc2ccc(-c3nccc4[nH]c(CN5CCOCC5)cc34)cc2)CC1        59%
3  Cc1nc(-c2ccc(N3CCN(C(C)C)CC3)cc2)c2cc(CN3CCCC3)[nH]c2c1C       100%
4  CN1CCN(c2cccc(-c3nccc4[nH]c(CN5CCOCC5)cc34)c2)CC1        45%
5  Cc1cc2[nH]c(CCN3CCOCC3)cc2c(-c2ccc(N3CCN(C)CC3)cc2)n1       100%

Per the records, this molecule ( c1cc2[nH]c(CN3CCOCC3)cc2c(-c2ccc(OC3CCNCC3)cc2)n1 ) has inhibition at 1 µM equal to 15%

Per the records, this molecule ( Cc1cc2[nH]c(CN3CCOCC3)cc2c(-c2ccc(C3CCN(C(C)C)CC3)cc2)n1 ) has inhibition at 1 µM equal to 90%

Memo: Cc1cc2c(cc(CCN3CCOCC3)n2C)c(C2CCC(N3CCN(C(C)C)CC3)CC2)n1 (centres unmarked) , reported inhibition at 1 µM: 72%

====

# studySystem: hTLR9 (Homo sapiens)
# Construct: expressed in transfected cells; host or cells: HEK-Blue-hTLR9 cells (HEK293)
# methodNotes: hTLR9 antagonism (SEAP inhibition assay) in HEK-Blue-hTLR9 (HEK293) cells, ODN-2006 stimulated
# Type: cell-based
# conditionParameters: HEK-Blue hTLR9, 1 μM; SEAP, HEK-Blue-hTLR9 cells; read-out: hTLR9 inhibitory activity (% at 1 μM)
Each entry below carries its reported inhibition at 1 µM.
Number in %, nothing else.

> print(dat)
                                   compound     measurementkind  endpointunit  datavalue
1  CC(C)N1CC=C(c2ccc(-c3nccc4[nH]c(CN5CCOCC5)cc34)cn2)CC1  inhibition at 1 µM             %       84.5
2  CN1CCN(C(=O)c2ccc(-c3nccc4[nH]c(CN5CCOCC5)cc34)cc2)CC1  inhibition at 1 µM             %         62
3  c1cc2[nH]c(CN3CCOCC3)cc2c(-c2ccc(N3CCN(Cc4cocn4)CC3)cc2)n1  inhibition at 1 µM             %       81.2

// inhibition at 1 µM value for COC(=O)[C@H]1CCCN1Cc1cc2c(-c3ccc(N4CCN(C(C)C)CC4)cc3)nccc2[nH]1 : 72

Kindly note the recorded inhibition at 1 µM for Cc1cc2c(cc(CCN3CCOCC3)n2C)c(-c2ccc(N3CCN(C(C)C)CC3)c(C(F)(F)F)c2)n1 , which is 99.3

Short answer for COc1cc(N2CCN(C(C)C)CC2)ccc1-c1nc(C)cc2c1cc(CCN1CCOCC1)n2C : inhibition at 1 µM was 100

Lookup result for CC(C)N1CCN(C2CCC(c3nccc4[nH]c(CN5CCOCC5)cc34)CC2)CC1 (centres unmarked) ; measured inhibition at 1 µM: 100

Kindly note the recorded inhibition at 1 µM for COC(=O)C1CCN(c2ccc(-c3nccc4[nH]c(CN5CCOCC5)cc34)cc2)CC1 , which is 27.5

====

Recorded inhibition at 1 µM values for a group of molecules are listed next.
# studySystem: mTLR9 (Mus musculus)
# Construct: Splenocytes isolated from male C57/BL6 mice; from tissue; host or cells: splenocytes from the spleen of male C57BL/6 mice
# methodNotes: mTLR9 antagonism (IL-6 and TNF-α release assay) in mouse splenocytes, CpG ODN-2006 stimulated
# Assay type: cell-based
# conditionParameters: 1 μM; TNF-α release, mouse splenocytes; read-out: mTLR9 inhibitory activity (% at 1 μM), TNF-α
Report only the number, with the unit % understood.

> print(dat)
                                givensmiles  datavalue
1  Cc1cc2[nH]c(CCCN3CCOCC3)cc2c(-c2ccc(N3CCN(C(C)C)CC3)cc2)n1        100
2  CN1CCN(c2ccc(-c3nc(C4CC4)cc4[nH]c(CN5CCOCC5)cc34)cc2)CC1         93

The reported value for Cc1nc(-c2ccc(N3CCN(C(C)C)CC3)cc2)c2cc(CCN3CCOCC3)[nH]c2c1C in terms of inhibition at 1 µM is 100

Form: molecule = CCN1CCN(c2ccc(-c3nc(C)cc4[nH]c(CN5CCOCC5)cc34)cc2)CC1 ; inhibition at 1 µM = 91

====

# studySystem: mTLR7 (Mus musculus)
# Construct: Splenocytes isolated from male C57/BL6 mice; from tissue; host or cells: splenocytes from the spleen of male C57BL/6 mice
# Sequence (P58681 27-1050): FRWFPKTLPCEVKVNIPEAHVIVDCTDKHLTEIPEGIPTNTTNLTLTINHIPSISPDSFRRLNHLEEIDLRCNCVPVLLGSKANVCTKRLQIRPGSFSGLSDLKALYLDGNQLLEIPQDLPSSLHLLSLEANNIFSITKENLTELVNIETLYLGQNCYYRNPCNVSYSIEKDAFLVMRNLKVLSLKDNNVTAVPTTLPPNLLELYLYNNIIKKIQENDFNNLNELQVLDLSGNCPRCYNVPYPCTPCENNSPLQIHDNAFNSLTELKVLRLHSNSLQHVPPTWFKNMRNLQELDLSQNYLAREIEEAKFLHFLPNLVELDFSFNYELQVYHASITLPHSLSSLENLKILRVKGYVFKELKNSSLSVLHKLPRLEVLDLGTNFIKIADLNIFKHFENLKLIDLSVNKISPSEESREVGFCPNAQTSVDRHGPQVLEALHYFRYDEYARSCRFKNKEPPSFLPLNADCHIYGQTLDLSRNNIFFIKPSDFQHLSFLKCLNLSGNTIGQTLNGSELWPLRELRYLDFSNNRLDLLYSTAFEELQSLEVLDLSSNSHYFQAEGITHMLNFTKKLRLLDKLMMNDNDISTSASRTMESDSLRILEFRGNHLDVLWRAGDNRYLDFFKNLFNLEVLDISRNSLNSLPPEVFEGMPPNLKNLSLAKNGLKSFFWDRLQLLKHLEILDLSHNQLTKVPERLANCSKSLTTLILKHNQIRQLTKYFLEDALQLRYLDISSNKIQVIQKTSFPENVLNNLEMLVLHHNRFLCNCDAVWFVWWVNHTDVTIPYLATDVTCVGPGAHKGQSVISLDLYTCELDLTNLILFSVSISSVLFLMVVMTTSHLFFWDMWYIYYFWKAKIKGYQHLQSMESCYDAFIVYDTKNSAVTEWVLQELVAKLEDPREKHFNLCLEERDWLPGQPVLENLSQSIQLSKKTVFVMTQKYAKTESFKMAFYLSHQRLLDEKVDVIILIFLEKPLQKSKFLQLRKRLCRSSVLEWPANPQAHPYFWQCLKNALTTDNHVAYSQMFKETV
# methodNotes: mTLR7 antagonism (IL-6 and TNF-α release assay) in mouse splenocytes, R0006/DOTAP stimulated
# Assay type: cell-based
# conditionParameters: 1 μM; TNF-α release, mouse splenocytes; read-out: mTLR7 inhibitory activity (% at 1 μM), TNF-α
measurementKind: inhibition at 1 µM (%)
Use % as the unit, but write only the number.

> print(dat)
                                givensmiles  datavalue
1  COc1cc(-c2nc(C)cc3c2cc(CCN2CCOCC2)n3C)ccc1N1CCN(C(C)C)CC1        100
2  Cc1nc(-c2ccc(N3CCN(C(C)C)CC3)cc2)c2cc(CN3CCOCC3)[nH]c2c1C         99
3  Cc1cc2c(cc(CCN3CCOCC3)n2C)c(-c2ccc(N3CCN(C(C)C)CC3)cc2F)n1        100
4  CC(C)N1CCN(c2ccc(-c3nccc4[nH]c(CN5CC(F)C5)cc34)cc2)CC1         99
5  CC(C)N1CCN(c2ccc(-c3nccc4[nH]c(CN5CCCCC5)cc34)cc2)CC1        100

Consider CCN1CCN(c2ccc(-c3nc(C)c(C)c4[nH]c(CN5CCOCC5)cc34)cc2)CC1 . Its measured inhibition at 1 µM is 100

# inhibition at 1 µM of CC(C)N1CCN(c2ccc(-c3nccc4c3cc(CN3CCOCC3)n4C)cc2)CC1 = 100

Value of inhibition at 1 µM reported for the compound CC(C)N1CCC(c2ccc(-c3nccc4[nH]c(CN5CCOCC5)cc34)cc2)CC1 is 36

====

# studySystem: hTLR9 (Homo sapiens, UniProt Q9NR96)
# Construct: expressed in transfected cells; host or cells: HEK-Blue-hTLR9 cells (HEK293)
# Sequence (Q9NR96 26-1032): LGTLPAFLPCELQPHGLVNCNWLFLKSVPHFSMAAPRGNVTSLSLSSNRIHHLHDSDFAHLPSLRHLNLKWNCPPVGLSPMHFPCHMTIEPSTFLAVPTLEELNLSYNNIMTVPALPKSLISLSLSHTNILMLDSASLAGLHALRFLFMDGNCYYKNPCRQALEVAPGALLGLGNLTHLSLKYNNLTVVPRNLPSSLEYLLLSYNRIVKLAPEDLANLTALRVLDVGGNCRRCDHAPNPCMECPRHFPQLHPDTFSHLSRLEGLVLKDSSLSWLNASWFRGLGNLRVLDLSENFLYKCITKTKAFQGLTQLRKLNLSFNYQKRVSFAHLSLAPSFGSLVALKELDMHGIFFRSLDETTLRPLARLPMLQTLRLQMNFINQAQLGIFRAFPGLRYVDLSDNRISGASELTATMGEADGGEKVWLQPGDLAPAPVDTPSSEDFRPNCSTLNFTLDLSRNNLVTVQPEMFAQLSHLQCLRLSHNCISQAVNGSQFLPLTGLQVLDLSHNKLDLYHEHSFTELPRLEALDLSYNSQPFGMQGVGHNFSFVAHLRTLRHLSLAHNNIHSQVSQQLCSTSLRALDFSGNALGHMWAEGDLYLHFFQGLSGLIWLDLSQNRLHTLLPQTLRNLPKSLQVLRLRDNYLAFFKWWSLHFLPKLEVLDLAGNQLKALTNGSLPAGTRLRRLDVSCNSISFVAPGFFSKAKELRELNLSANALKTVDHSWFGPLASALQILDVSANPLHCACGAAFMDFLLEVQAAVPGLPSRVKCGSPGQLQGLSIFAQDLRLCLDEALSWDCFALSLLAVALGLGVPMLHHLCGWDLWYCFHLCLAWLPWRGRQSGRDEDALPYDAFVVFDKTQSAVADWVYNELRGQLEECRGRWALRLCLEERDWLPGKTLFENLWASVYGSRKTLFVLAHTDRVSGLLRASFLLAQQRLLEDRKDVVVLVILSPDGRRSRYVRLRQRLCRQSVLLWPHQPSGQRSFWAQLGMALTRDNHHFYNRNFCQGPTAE
# methodNotes: hTLR9 antagonism (SEAP inhibition assay) in HEK-Blue-hTLR9 (HEK293) cells, ODN-2006 stimulated
# Type: cell-based
# conditionParameters: HEK-Blue hTLR9, 1 μM; SEAP, HEK-Blue-hTLR9 cells; read-out: hTLR9 inhibitory activity (% at 1 μM)
Below, each entry is listed alongside its reported inhibition at 1 µM.
Just the number in %, nothing appended.

Below, 7 molecules whose answers are already recorded.
> print(dat)
                                givensmiles  endpointunit  datavalue
1  c1cc2[nH]c(CN3CCOCC3)cc2c(-c2ccc(OC3CCNCC3)cc2)n1             %         91
2  CN1CCN(c2cccc(-c3nccc4[nH]c(CN5CCOCC5)cc34)c2)CC1             %       89.5
3  c1cc2[nH]c(CN3CCOCC3)cc2c(-c2ccc(C3CCN(C4COC4)CC3)cc2)n1             %       70.5
4  Cc1cc2[nH]c(CN3CCOCC3)cc2c(-c2ccc(N3CCN(C(C)C)CC3)cc2)n1             %        100
5  CN1CCC(Oc2ccc(-c3nccc4[nH]c(CN5CCOCC5)cc34)cc2)CC1             %       98.2
6  Cc1cc2[nH]c(Cn3cccn3)cc2c(-c2ccc(N3CCN(C(C)C)CC3)cc2)n1             %         91
7  Cc1cc2c(cc(CN3CCOCC3)n2C)c(-c2ccc(N3CCN(C(C)C)CC3)cc2)n1             %       96.3

Consider now this further molecule.
Please fill in: inhibition at 1 µM reported for CN1CCN(c2ccc(-c3nccc4[nH]c(CN5CCC(F)CC5)cc34)cc2)CC1 = 95.2
